- RUN_DESCRIPTION: Pharmacokinetic study in dogs
- Format: in vivo, male Beagle dogs
- CONDITION_LABEL: male, Beagle, dog, plasma, iv, 3 mg/kg, Dog, IV bolus, Table 6; read-out: T1/2 (IV bolus) (converted)
METRIC: half-life (min)
Number in min, nothing else.

Cc1cccc(CCNc2nc3c(C)c(C)nn3c(N)c2C#N)n1	46.2

Here is the next item to consider.
Lab book: half-life of CCc1c(C)nn2c(N)c(C#N)c(NCCc3ccn(C4(CO)CC4)n3)nc12 noted as 27

###

- MEASURED_ON: A2B receptor (Homo sapiens)
- Sequence (P29275 whole entry): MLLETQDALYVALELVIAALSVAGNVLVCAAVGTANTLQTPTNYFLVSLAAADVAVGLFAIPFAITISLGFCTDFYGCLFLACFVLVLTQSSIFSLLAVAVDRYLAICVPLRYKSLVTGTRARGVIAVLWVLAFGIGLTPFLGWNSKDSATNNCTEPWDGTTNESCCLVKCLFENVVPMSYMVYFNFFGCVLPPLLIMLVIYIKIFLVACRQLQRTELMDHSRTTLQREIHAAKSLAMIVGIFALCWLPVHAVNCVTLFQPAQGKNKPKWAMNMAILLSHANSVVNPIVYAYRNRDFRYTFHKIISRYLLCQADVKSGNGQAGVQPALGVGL
- RUN_DESCRIPTION: A2bR antagonism IC50, cAMP TR-FRET (Lance Ultra) in HEK-293 cells, NECA as agonist
- Assay type: cell-based
- Design: host or cells: HEK-293
- CONDITION_LABEL: HEK-293 cells expressing A2B receptor; agonist NECA 30 nM (EC90); inhibition of cAMP
// assign rule met if IC50 falls strictly below 9 nM, else rule not met (ties count as rule not met)

Cc1nn2c(N)c(C#N)c(NCCc3cccc(C(F)(F)CO)n3)nc2c1Cl [Example 64]	rule not met
COc1cccc(CCNc2nc3c(C)c(C)nn3c(N)c2C#N)n1 [Example 12]	rule met
CCc1nn2c(N)c(C#N)c(NCCc3cccc(C(C)(C)O)n3)nc2c1C [Example 43]	rule not met

## Task For Cc1nn2c(N)c(C#N)c(NCCc3ccn(C4(CO)CC4)n3)nc2c1C [Example 55] , is the recorded IC50 below the cut-off of 9 nM?
## Result rule met

## Task For CCc1c(C(F)F)nn2c(N)c(C#N)c(NCCc3ccn(C(C)(C)CO)n3)nc12 [Example 48] , is the recorded IC50 below the cut-off of 9 nM?
## Result rule not met

## Task For Cc1nn2c(N)c(C#N)c(NCCc3cccc(C4CC4CO)n3)nc2c1Cl (stereo not drawn) [Example 38] , is the recorded IC50 below the cut-off of 9 nM?
## Result rule met

## Task For Cc1cccc(C(C)Nc2nc3c(C)c(C)nn3c(N)c2C#N)n1 (stereo not drawn) [Example 1] , is the recorded IC50 below the cut-off of 9 nM?
## Result rule not met

## Task For CCc1c(C)nn2c(N)c(C#N)c(NC(C)Cc3cccc(C)n3)nc12 (racemic) [Example 24] , is the recorded IC50 below the cut-off of 9 nM?
## Result rule met

## Task For Cc1nn2c(N)c(C#N)c(NCCc3ccn(CCO)n3)nc2c1Cl [Example 35] , is the recorded IC50 below the cut-off of 9 nM?
## Result rule not met

###

- RUN_DESCRIPTION: Plasma protein binding, equilibrium dialysis, mouse
- Format: in vitro ADME
- CONDITION_LABEL: plasma (10% plasma, extrapolated to 100% plasma), CD-1 plasma, 18 hours at 37° C.
METRIC: fraction unbound at 18 h, 10 µM
// response body must contain only the number

CCc1c(C)nn2c(N)c(C#N)c(NCCc3ccn(C4(CO)CC4)n3)nc12	0.125

Here is the next item to consider.
Lab book: fraction unbound at 18 h, 10 µM of Cc1cccc(CCNc2nc3c(C)c(C)nn3c(N)c2C#N)n1 noted as 0.0933

###

- RUN_DESCRIPTION: Pharmacokinetic study in dogs
- Type: in vivo, male Beagle dogs
- CONDITION_LABEL: male, Beagle, plasma; Dog, oral 10 mg/kg vs IV bolus 3 mg/kg; read-out: % F (bioavailability)
Reported values of bioavailability for individual entries
Number in %, nothing else.

Cc1cccc(CCNc2nc3c(C)c(C)nn3c(N)c2C#N)n1	25

Here is the next item to consider.
Lab book: bioavailability of CCc1c(C)nn2c(N)c(C#N)c(NCCc3ccn(C4(CO)CC4)n3)nc12 noted as 25
